# Test system: Hepatitis C virus
# assay_notes: Antiviral activity against HCV genotype 1b infected in human HuH7 cells after 3 days by luciferase reporter gene assay
# Type: functional, organism-based, Hepacivirus hominis
# condition_notes: Huh-7, 72 h
measure_name: EC50 (nM)
Express the result in nM but write the number alone.

Take a look at these entries with their results.
O=C(NC1CCCCC1)c1c(NO)cc(-c2ccccc2)oc1=O = 2300
CCC[C@H](NC(=O)[C@@H]1[C@H]2CCC[C@H]2CN1C(=O)[C@@H](NC(=O)[C@@H](NC(=O)c1cnccn1)C1CCCCC1)C(C)(C)C)C(=O)C(=O)NC1CC1 = 360
COc1ccc(NC(=O)c2c(NO)cc(-c3cccs3)oc2=O)cc1 = 200
O=C(NC1CCCCC1)c1c(NO)cc(-c2ccc(Cl)cc2)oc1=O = 2200
COc1cccc(NC(=O)c2c(NO)cc(-c3ccccc3)oc2=O)c1 = 630

Task item: Supply recorded EC50 for COc1ccccc1NC(=O)c1c(NO)cc(-c2ccccc2)oc1=O here.
Reply: 350

Task item: Give reported EC50 value for O=C(Nc1ccc(Cl)cc1)c1c(NCCO)cc(-c2cccc(Br)c2)oc1=O
Reply: 7100

Task item: Determine its reported EC50: Nc1ccccc1NC(=O)c1c(NO)cc(-c2cccs2)oc1=O
Reply: 250

Task item: Report measured EC50; entry is Cc1cccc(NC(=O)c2c(NO)cc(-c3cccs3)oc2=O)c1
Reply: 470

Task item: Provide EC50 value for the following molecule: O=C(Nc1ccc(Br)cc1)c1c(NCCO)cc(-c2ccc(Br)cc2)oc1=O
Reply: 14400
